Literature IC50 values, system: human PDE10A2 (Homo sapiens (Human)).

Use these answered entries as a reference point.
[[record]]
compound = "CC(=O)c1sc(C)nc1-c1cnn(C)c1C(=O)NC1CCn2nc(-c3cccc(F)c3)nc2C1 (stereo not shown)"
reading = "5 to 100 nM"

[[record]]
compound = "CNC(=O)c1cc(CCc2nc(N3CCCC3)nn2C)nn2c(C)c(C)nc12"
reading = "2 nM"

[[record]]
compound = "Cc1noc(C)c1-c1ccnc2c1C(=O)N(CCc1ccc3ccccc3n1)C2"
reading = "200 to 500 nM"


For each listed entry, give its IC50.
1. Cn1ncc(-c2nc(C(F)F)c(Cl)s2)c1C(=O)Nc1ccn2cc(-c3ccccc3)nc2c1
2. O=C1c2c(C3=CCOCC3)ccnc2CN1CCc1ccc2ccccc2n1
3. O=C(NC1(c2ccc(C(F)(F)F)nc2)CCOCC1)c1cnn2cc(C3CC3)cnc12

["< 5 nM", "< 100 nM", "> 10000 nM"]

For Cc1sc(-c2cnn(C)c2C(=O)NC2CCn3nc(-c4ccccc4)nc3C2)nc1C(F)F (stereo not shown) , what is its reported IC50?
< 5 nM
